# subject-of-test: EML4-ALK-G1202R BaF3 cells (Homo sapiens, UniProt Q9UM73, G1202R)
# Sequence (Q9UM73 1058-1620 G1202R limits assumed): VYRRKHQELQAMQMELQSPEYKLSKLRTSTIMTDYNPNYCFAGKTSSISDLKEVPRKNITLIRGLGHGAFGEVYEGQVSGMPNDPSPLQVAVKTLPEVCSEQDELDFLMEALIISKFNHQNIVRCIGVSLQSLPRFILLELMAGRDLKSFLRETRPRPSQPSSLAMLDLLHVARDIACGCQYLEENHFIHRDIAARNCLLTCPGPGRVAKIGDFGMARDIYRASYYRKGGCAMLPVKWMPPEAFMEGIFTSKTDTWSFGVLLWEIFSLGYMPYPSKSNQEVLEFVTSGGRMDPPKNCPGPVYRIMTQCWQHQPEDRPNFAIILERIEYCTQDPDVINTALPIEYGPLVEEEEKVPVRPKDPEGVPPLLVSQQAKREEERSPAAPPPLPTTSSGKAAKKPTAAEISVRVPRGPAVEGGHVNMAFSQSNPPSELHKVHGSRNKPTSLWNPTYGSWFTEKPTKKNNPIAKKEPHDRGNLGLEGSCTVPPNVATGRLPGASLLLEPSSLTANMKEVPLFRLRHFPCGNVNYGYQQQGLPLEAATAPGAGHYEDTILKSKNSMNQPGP
# assay: Growth inhibition of BaF3 cells stably transfected with ALK point mutation G1202R
# stated-conditions: read-out: Growth inhibitory activity IC50, EML4-ALK-G1202R
quantity-kind: pIC50
In plain terms, pIC50 is the concentration in mol/L turned into minus its base-10 logarithm.

What pIC50 appears in the records for this compound with EML4-ALK-G1202R BaF3 cells (Homo sapiens, UniProt Q9UM73, G1202R)? COc1cc2c(cc1Nc1nc(Nc3ccccc3S(=O)(=O)C(C)C)c3sccc3n1)N(C(=O)CN(C)C)CC2
8.00
